molecular target: Casein kinase I isoform delta (Homo sapiens, UniProt P48730); further: in the data inactive means no Kd found up to 30 µM
Sequence (P48730 whole entry, canonical isoform): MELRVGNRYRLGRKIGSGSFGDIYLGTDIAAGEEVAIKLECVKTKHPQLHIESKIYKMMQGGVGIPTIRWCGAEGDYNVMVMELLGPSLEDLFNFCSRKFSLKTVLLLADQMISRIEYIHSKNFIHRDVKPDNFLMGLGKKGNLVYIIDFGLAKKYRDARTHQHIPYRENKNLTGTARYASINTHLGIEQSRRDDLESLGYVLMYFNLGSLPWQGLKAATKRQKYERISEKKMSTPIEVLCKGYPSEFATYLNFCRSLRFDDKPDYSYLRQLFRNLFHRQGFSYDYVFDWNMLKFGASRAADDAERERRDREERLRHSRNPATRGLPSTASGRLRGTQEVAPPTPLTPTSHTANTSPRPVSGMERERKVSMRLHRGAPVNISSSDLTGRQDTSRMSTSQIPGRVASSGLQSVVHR
Active and inactive are the calls of the source.
Entry note: the call must match one of yes (1) = active, no (0) = inactive

A selection of reference data follows.
> print(dat)
                                    molecule  classification
 1  C=CC(=O)Nc1cc2c(Nc3ccc(F)c(Cl)c3)ncnc2cc1C#CC(C)(C)N1CCN(C)CC1 [AV-412 FREE BASE]          no (0)
 2  Cc1cccc(-c2nn3c(c2-c2ccnc4ccc(C(N)=O)cc24)CCC3)n1         yes (1)
 3  CCCCCCCCCCCCCCCCCCOP(=O)([O-])OC1CC[N+](C)(C)CC1          no (0)
 4  CNC(=O)c1cccc2cc(Oc3ccnc4cc(OCC5(N)CC5)c(OC)cc34)ccc12          no (0)
 5  CNC(=O)c1nn(C)c2c1C(C)(C)Cc1cnc(Nc3ccc(N4CCN(C)CC4)cc3)nc1-2         yes (1)
 6  COCc1c(-c2ccc(NC(=O)Nc3cc(C(F)(F)F)ccc3F)c(F)c2)c2c(N)ncnn2c1CN1CCOCC1          no (0)
 7  Cc1nc2cc(-c3nn(C(C)C)c4ncnc(N)c34)ccc2o1         yes (1)
 8  CNC(=O)c1cc(Oc2ccc(NC(=O)Nc3cc(C(C)(C)C)nn3-c3ccc4ncccc4c3)c(F)c2)ccn1          no (0)
 9  N#CC1(c2ccc(NC(=O)c3cccnc3NCc3ccncc3)cc2)CCCC1          no (0)
10  CN1C/C=C/CCOc2cccc(c2)-c2ccnc(n2)Nc2cccc(c2)C1         yes (1)

[in] Identify the outcome logged in this assay for the molecule shown: `Cn1cc(-c2cnn3c(N)c(Br)c([C@@H]4CCCNC4)nc23)cn1`
[out] no (0)

[in] Which result was noted for this molecule in the test: `CN1CCN(CCOc2cc(OC3CCOCC3)c3c(Nc4c(Cl)ccc5c4OCO5)ncnc3c2)CC1`
[out] no (0)

[in] # fetch the recorded call for `NC(=O)Nc1cc(-c2cccc(F)c2)sc1C(=O)N[C@H]1CCCNC1` here
[out] no (0)

###

Activity calls are given as the source filed them.
So I've got Kd readings for S-adenosylmethionine synthase isoform type-2 (Homo sapiens), take a look.

> print(dat)
                                   compound  measured.property      measured.value
1  C[C@@H](Oc1cc(-n2cnc3ccc(CN4CCN(C)CC4)cc32)sc1C(N)=O)c1ccccc1C(F)(F)F                 Kd  > 30 µM (inactive)
2  COCc1c(-c2ccc(NC(=O)Nc3cc(C(F)(F)F)ccc3F)c(F)c2)c2c(N)ncnn2c1CN1CCOCC1                 Kd  > 30 µM (inactive)
3  Cc1nc(NC(=O)N2CCC[C@H]2C(N)=O)sc1-c1ccnc(C(C)(C)C(F)(F)F)c1                 Kd  > 30 µM (inactive)

Now examine the next entry.
[in] Please indicate Kd recorded for `C[C@@H](N)c1ccc(C(=O)Nc2ccnc3[nH]ccc23)cc1`
[out] > 30 µM (inactive)

###

target: Mitogen-activated protein kinase kinase kinase 20 (Homo sapiens, UniProt Q9NYL2); further: in the data inactive means no Kd found up to 30 µM
Sequence (Q9NYL2 whole entry): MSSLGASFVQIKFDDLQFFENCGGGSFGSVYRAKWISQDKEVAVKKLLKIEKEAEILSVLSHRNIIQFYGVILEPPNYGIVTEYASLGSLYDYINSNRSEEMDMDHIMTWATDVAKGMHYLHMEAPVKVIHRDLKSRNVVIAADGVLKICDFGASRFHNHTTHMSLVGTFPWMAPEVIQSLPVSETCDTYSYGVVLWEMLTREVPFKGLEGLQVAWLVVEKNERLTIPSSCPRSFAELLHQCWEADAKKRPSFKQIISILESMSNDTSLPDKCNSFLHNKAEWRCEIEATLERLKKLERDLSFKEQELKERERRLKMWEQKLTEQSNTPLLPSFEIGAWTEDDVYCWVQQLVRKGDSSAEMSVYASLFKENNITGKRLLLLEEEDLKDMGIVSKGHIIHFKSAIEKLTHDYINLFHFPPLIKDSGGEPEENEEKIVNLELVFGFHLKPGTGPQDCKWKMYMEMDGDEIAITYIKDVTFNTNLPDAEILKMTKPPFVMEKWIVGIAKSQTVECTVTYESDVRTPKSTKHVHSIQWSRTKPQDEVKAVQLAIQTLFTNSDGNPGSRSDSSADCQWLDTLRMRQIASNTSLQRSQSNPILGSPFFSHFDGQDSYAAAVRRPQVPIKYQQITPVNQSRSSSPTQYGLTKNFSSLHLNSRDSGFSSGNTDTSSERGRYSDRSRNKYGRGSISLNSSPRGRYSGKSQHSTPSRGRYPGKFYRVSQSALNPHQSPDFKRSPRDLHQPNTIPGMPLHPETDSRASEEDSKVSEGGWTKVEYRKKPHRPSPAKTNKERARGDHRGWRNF
The source made the active and inactive calls.
Respond only with the outcome that fits, drawn from Yes = active, No = inactive

> print(dat)
                            chemical.smiles  classification
1  COCC(=O)NC/C=C/c1ccc2ncnc(Nc3ccc(Oc4ccc(C)nc4)c(C)c3)c2c1              No
2  COc1cc([C@@H]2c3cc4c(cc3[C@H](O)[C@H]3COC(=O)[C@@H]23)OCO4)cc(OC)c1OC              No
3  Cc1cc(Nc2ncnc3ccc(NC4=NC(C)(C)CO4)cc23)ccc1Oc1ccn2ncnc2c1              No

[in] Call for entry `FC(F)(F)c1ccc(/C=C/c2nc(COc3ccc(CCCCn4ccnn4)cc3)co2)cc1` :
[out] No

[in] Call for entry `Cc1nc(Nc2n[nH]c3c2CN(C(=O)N[C@H](CN(C)C)c2ccccc2)C3(C)C)c2sccc2n1` :
[out] No

[in] Call for entry `O=C(Cc1ccc(-c2ccc(OCCN3CCOCC3)cc2)cn1)NCc1ccccc1` :
[out] No

###

Calls of active or inactive are those of the source.
These records show Kd for Acyl-CoA dehydrogenase family member 11 (Homo sapiens).

Below are worked cases with known answers.
> print(dat)
                                   molecule                                    system  measured.property      measured.value
1  COCc1c(-c2ccc(NC(=O)Nc3cc(C(F)(F)F)ccc3F)c(F)c2)c2c(N)ncnn2c1CN1CCOCC1  Acyl-CoA dehydrogenase family member 11 (Homo sapiens)                 Kd  > 30 µM (inactive)
2  Cc1cnc(NC(=O)Nc2cc(Br)c(C)cc2OC[C@@H]2CNCCO2)cn1 [RABUSERTIB]  Acyl-CoA dehydrogenase family member 11 (Homo sapiens)                 Kd  > 30 µM (inactive)
3  CC(C)c1cc(CNc2nc(Nc3cc(C4CC4)[nH]n3)cc(N3CCN(C)CC3)n2)on1 [XL-228]  Acyl-CoA dehydrogenase family member 11 (Homo sapiens)                 Kd  > 30 µM (inactive)

[in] Using Acyl-CoA dehydrogenase family member 11 (Homo sapiens) as the test system, report measured Kd of O=C(Nc1nc2cccc(-c3ccc(CN4CCS(=O)(=O)CC4)cc3)n2n1)C1CC1 [FILGOTINIB] .
[out] > 30 µM (inactive)

[in] Would you please give the reported Kd of N#CC[C@H](C1CCCC1)n1cc(-c2ncnc3[nH]ccc23)cn1 [RUXOLITINIB] with Acyl-CoA dehydrogenase family member 11 (Homo sapiens)?
[out] > 30 µM (inactive)

[in] Supply Kd measured with Acyl-CoA dehydrogenase family member 11 (Homo sapiens) for CNC(=O)c1nn(C)c2c1C(C)(C)Cc1cnc(Nc3ccc(N4CCN(C)CC4)cc3)nc1-2 [MILCICLIB] .
Sequence (Q709F0 whole entry): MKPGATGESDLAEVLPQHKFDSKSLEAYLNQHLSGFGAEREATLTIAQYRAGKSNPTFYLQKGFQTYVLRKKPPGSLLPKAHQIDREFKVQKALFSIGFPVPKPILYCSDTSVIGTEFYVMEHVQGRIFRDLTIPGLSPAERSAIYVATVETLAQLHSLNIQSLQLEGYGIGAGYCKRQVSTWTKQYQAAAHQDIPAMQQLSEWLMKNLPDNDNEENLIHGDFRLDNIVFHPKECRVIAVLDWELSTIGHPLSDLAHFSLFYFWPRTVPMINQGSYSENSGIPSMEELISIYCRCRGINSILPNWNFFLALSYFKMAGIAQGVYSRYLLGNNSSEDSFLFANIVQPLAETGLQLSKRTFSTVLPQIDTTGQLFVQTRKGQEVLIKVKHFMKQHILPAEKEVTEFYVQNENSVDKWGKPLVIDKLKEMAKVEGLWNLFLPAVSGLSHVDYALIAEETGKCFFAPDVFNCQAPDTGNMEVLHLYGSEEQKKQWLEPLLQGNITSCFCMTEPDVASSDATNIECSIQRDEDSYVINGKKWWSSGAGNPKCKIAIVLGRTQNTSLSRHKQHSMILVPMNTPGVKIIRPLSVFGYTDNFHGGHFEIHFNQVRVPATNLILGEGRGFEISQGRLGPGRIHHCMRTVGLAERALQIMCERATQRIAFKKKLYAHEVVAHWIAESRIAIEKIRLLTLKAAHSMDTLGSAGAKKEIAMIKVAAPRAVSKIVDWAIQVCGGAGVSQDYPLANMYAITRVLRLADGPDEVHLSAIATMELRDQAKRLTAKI
[out] > 30 µM (inactive)

[in] Report its Kd with Acyl-CoA dehydrogenase family member 11 (Homo sapiens) as the test system: CNC(=O)c1cc(Oc2ccc(NC(=O)Nc3cc(C(C)(C)C)nn3-c3ccc4ncccc4c3)c(F)c2)ccn1 [REBASTINIB]
[out] > 30 µM (inactive)

[in] Look up and report measured Kd (Acyl-CoA dehydrogenase family member 11 (Homo sapiens)) for the following molecule: Cc1[nH]c(/C=C2\C(=O)Nc3ccccc32)c(C)c1CCC(=O)O [ORANTINIB]
[out] > 30 µM (inactive)

###

molecular target: Receptor-interacting serine/threonine-protein kinase 2 (Homo sapiens, UniProt O43353); further: in the data inactive means no Kd found up to 30 µM
Sequence (O43353 whole entry): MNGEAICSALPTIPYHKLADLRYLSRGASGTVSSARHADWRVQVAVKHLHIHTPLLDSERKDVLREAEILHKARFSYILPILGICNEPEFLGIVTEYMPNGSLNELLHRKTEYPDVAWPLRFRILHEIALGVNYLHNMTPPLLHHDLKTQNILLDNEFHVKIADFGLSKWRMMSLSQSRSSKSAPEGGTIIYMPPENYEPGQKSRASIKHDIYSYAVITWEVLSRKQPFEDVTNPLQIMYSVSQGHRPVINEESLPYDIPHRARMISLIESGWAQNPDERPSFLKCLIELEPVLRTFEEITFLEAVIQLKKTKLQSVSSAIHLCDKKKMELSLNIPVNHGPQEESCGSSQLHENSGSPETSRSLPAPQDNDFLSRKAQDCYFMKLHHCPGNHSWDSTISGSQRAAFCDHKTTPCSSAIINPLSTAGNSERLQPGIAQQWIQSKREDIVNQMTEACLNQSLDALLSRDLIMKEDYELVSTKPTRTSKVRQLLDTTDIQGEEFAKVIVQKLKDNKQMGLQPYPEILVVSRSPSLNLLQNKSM
Calls of active or inactive are those of the source.
Please state which outcome applies, choosing from yes for active, no for inactive

The examples below pair each entry with its known result.
> print(dat)
                                   compound                                    system  classification
1  CCCCCCCCCCCCCCCCCCOP(=O)([O-])OC1CC[N+](C)(C)CC1 [PERIFOSINE]  Receptor-interacting serine/threonine-protein kinase 2 (Homo sapiens, UniProt O43353)              no
2  O=C(Cc1ccc(-c2ccc(OCCN3CCOCC3)cc2)cn1)NCc1ccccc1 [TIRBANIBULIN]  Receptor-interacting serine/threonine-protein kinase 2 (Homo sapiens, UniProt O43353)              no
3  Cc1cccc(-c2nn3c(c2-c2ccnc4ccc(C(N)=O)cc24)CCC3)n1 [GALUNISERTIB]  Receptor-interacting serine/threonine-protein kinase 2 (Homo sapiens, UniProt O43353)             yes
4  COCC(=O)NC/C=C/c1ccc2ncnc(Nc3ccc(Oc4ccc(C)nc4)c(C)c3)c2c1 [CP-724714]  Receptor-interacting serine/threonine-protein kinase 2 (Homo sapiens, UniProt O43353)              no

[in] So what was the verdict on CCOc1cc2ncc(C#N)c(Nc3ccc(F)c(Cl)c3)c2cc1NC(=O)/C=C/CN(C)C [PELITINIB] in this test?
[out] no

###

Below are molecules with their Kd as measured on TGF-beta receptor type-2 (Homo sapiens).
Sequence (P37173 whole entry): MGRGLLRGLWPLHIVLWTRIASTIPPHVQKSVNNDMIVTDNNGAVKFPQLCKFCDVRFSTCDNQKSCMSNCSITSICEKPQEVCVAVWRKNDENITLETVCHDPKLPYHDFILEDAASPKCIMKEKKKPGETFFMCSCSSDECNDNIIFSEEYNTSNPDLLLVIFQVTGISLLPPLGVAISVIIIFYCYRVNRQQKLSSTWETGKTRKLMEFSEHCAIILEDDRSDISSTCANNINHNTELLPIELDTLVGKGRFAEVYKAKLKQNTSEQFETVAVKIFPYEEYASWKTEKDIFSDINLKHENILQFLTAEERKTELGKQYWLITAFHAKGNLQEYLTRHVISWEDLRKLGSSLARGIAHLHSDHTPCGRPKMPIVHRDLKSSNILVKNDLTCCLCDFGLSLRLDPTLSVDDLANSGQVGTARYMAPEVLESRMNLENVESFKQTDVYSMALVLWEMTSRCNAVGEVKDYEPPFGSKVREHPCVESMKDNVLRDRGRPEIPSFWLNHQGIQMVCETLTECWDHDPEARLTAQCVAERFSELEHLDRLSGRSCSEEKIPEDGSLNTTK
Activity calls are given as the source filed them.

Example entries and their recorded answers appear below.
Chemical smiles	System	Measured property	Measured value
COCC(=O)NC/C=C/c1ccc2ncnc(Nc3ccc(Oc4ccc(C)nc4)c(C)c3)c2c1	TGF-beta receptor type-2 (Homo sapiens)	Kd	> 30 µM (inactive)
C#Cc1cccc(Nc2ncnc3cc(OC)c(OCCCCCCC(=O)NO)cc23)c1	TGF-beta receptor type-2 (Homo sapiens)	Kd	> 30 µM (inactive)
CNC(=O)c1cc(Oc2ccc(NC(=O)Nc3cc(C(C)(C)C)nn3-c3ccc4ncccc4c3)c(F)c2)ccn1	TGF-beta receptor type-2 (Homo sapiens)	Kd	> 30 µM (inactive)
FC(F)(F)c1ccc(/C=C/c2nc(COc3ccc(CCCCn4ccnn4)cc3)co2)cc1	TGF-beta receptor type-2 (Homo sapiens)	Kd	> 30 µM (inactive)
CC(=O)c1cnc2ccc(-c3cc(Cl)c(O)c(Cl)c3)nc2c1N[C@H]1CC[C@H](CN(C)C)CC1	TGF-beta receptor type-2 (Homo sapiens)	Kd	> 30 µM (inactive)

Proceed to the following item.
[in] # return recorded Kd for input `CO[C@H]1C[C@@H]2CC[C@@H](C)[C@@](O)(O2)C(=O)C(=O)N2CCCC[C@H]2C(=O)O[C@H]([C@H](C)C[C@@H]2CC[C@@H](OP(C)(C)=O)[C@H](OC)C2)CC(=O)[C@H](C)/C=C(\C)[C@@H](O)[C@@H](OC)C(=O)[C@H](C)C[C@H](C)/C=C/C=C/C=C/1C`
[out] > 30 µM (inactive)
